TD50 at 2 min listing for selected compounds.
test: Neurotoxicity in ip dosed mouse assessed as myorelaxation measured for 2 mins by rotarod test; type: toxicity, organism-based; settings: in vivo
Respond with the bare value in mg/kg.

Below: 4 compounds and their reported TD50 at 2 min.
Task: Read the entry CC1(C)Cc2c(C#N)c(Nc3ccccc3)n3c(SCC(=O)c4cccc([N+](=O)[O-])c4)nnc3c2CO1 and write its reported TD50 at 2 min.
Result: 490

Task: Read the entry CC1(C)Cc2c(C#N)c(Nc3ccccc3)n3c(SCCCc4ccccc4)nnc3c2CO1 and write its reported TD50 at 2 min.
Result: 560

Task: Read the entry CCOC(=O)C(Sc1nnc2c3c(c(C#N)c(Nc4ccccc4)n12)CC(C)(C)OC3)c1ccccc1 (stereo not drawn) and write its reported TD50 at 2 min.
Result: 520

Task: Read the entry COc1ccc(CSc2nnc3c4c(c(C#N)c(Nc5ccc(C)cc5)n23)CC(C)(C)OC4)cc1 and write its reported TD50 at 2 min.
Result: 600

Note: attention shifts to another entry.
Task: Read the entry CC1(C)Cc2c(C#N)c(Nc3ccccc3)n3c(SCC(=O)N(c4ccccc4)c4ccccc4)nnc3c2CO1 and write its reported TD50 at 2 min.
Result: 580

* * *

assay: Protection index, ratio of TD50 for neurotoxicity in ip dosed mouse to ED50 for anticonvulsant activity in ip dosed mouse; format: toxicity, organism-based; details: in vivo, read-out: Ratio TD50/ED50
QUANTITY: selectivity ratio
// no unit, no text: just the number

Task: Read the entry CC1(C)Cc2c(C#N)c(Nc3ccccc3)n3c(SCC(=O)N(c4ccccc4)c4ccccc4)nnc3c2CO1 and write its reported selectivity ratio.
Result: 27.6

* * *

system: Mus musculus; test: Anticonvulsant activity in mouse assessed as proportion of animals displaying reduction in PTZ-induced clonic seizures at 50 mg/kg, ip administered 45 mins before PTZ stimulation relative to control; type: functional; parameters: scale not given: the % may be the effect or the level left
Activity listing for selected molecules.
Respond with the bare value in %.

Task: State, for Mus musculus, measured Activity of the molecule listed here: Cc1cccc(NC(=O)CSc2nnc3c4c(c(C#N)c(Nc5ccccc5)n23)CC(C)(C)OC4)c1
Result: 20

Task: State, for Mus musculus, measured Activity of the molecule listed here: Cc1ccc(Nc2c(C#N)c3c(c4nnc(SCC(=O)N(c5ccccc5)c5ccccc5)n24)COC(C)(C)C3)cc1
Result: 60

Task: State, for Mus musculus, measured Activity of the molecule listed here: Cc1ccc(Nc2c(C#N)c3c(c4nnc(SCC(=O)c5ccc([N+](=O)[O-])cc5)n24)COC(C)(C)C3)cc1
Result: 40

Task: State, for Mus musculus, measured Activity of the molecule listed here: COc1ccc(NC(=O)CSc2nnc3c4c(c(C#N)c(Nc5ccc(C)cc5)n23)CC(C)(C)OC4)cc1
Result: 40

Task: State, for Mus musculus, measured Activity of the molecule listed here: CCOC(=O)C(Sc1nnc2c3c(c(C#N)c(Nc4ccccc4)n12)CC(C)(C)OC3)c1ccccc1 (stereo not drawn)
Result: 60

Task: State, for Mus musculus, measured Activity of the molecule listed here: CC1(C)Cc2c(C#N)c(Nc3ccccc3)n3c(SCC(=O)c4ccc(Cl)cc4)nnc3c2CO1
Result: 20

Task: State, for Mus musculus, measured Activity of the molecule listed here: CC1(C)Cc2c(C#N)c(Nc3ccccc3)n3c(SCC(=O)N(c4ccccc4)c4ccccc4)nnc3c2CO1
Result: 80

Task: State, for Mus musculus, measured Activity of the molecule listed here: COc1cccc(NC(=O)CSc2nnc3c4c(c(C#N)c(Nc5ccc(C)cc5)n23)CC(C)(C)OC4)c1
Result: 40

The origin of these recorded values is ChEMBL document CHEMBL4373657.
